Origin of measurements: ChEMBL document CHEMBL1128245

Measured pIC50 by item
# assay-target: Prostacyclin synthase (Homo sapiens)
# Sequence (Q16647 whole entry): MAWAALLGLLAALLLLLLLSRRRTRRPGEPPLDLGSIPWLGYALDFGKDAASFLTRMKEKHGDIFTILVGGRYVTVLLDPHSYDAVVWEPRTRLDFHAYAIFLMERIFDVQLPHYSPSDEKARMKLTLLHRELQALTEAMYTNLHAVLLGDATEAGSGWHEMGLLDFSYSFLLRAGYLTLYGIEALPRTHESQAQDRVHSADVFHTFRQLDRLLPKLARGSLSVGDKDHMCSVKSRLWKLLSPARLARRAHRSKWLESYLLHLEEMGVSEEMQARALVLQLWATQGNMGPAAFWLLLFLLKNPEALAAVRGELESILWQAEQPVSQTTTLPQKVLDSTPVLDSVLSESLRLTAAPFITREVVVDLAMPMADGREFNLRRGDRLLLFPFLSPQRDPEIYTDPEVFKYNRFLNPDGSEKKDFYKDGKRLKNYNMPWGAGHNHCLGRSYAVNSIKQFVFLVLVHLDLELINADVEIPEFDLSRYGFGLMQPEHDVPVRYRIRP
# assay-name: In vitro inhibition of Prostaglandin I2 synthase in cultured human endothelial cells
pIC50: −log10 of the molar value.

Example molecules with recorded pIC50:
molecule="COc1ccc(OC(C)(C)C2OCC(C/C=C\\CCC(=O)O)C(c3cccnc3)O2)cc1 (stereo not drawn)" assay_target="Prostacyclin synthase (Homo sapiens)" assay_result="< 4.00"
molecule="CC(C)(Oc1ccccc1O)C1OCC(C/C=C\\CCC(=O)O)C(c2cccnc2)O1 (stereo not drawn)" assay_target="Prostacyclin synthase (Homo sapiens)" assay_result="< 4.00"

Attention now turns to another entry.
Fetch value of pIC50 on Prostacyclin synthase (Homo sapiens) for CC(C)(Oc1ccccc1[N+](=O)[O-])C1OCC(C/C=C\CCC(=O)O)C(c2cccnc2)O1 (stereo not drawn) .
> 6.00
